Taken from the supplement of paper PMC9170038.

System: K4 kissing-loop RNA reporter;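 note: bound reporter read as fluorescence of individual clusters on recovered sequencing chips by microscopy, with normalized cluster intensities fitted with a binding model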
RUN DESCRIPTION: apparent KD of K4 kissing-loop reporter; higher = weaker reporter binding
TEST CONDITIONS: Eterna round: R107; input ligand: arginine 13.2 mM
The label depends only on apparent KD of K4 kissing-loop reporter: criterion met if it is at least 300 nM, criterion not met if it is smaller.

Worked examples, 10 sequences total:
CONSTRUCT SEQUENCE | MEASURED ON | ANSWER LABEL
AAGGGCUAGGCGGCCGCCACUGGUCGUGAACACAUACGAGCCAGUGAUGUUGGUAUUGUGUGCGGCAGGACCGGGCCUAGCCGAA [Exclusion - Tryptophan B (Freestyle 24)] | K4 kissing-loop RNA reporter | criterion met
GGAUAGGACAUAGGAUAUGGGCUAGGCAAGAAUAACUUGUCUAGCAAAUCCAUGAGGAGUGAUGUUCCAGAAGGGUGUCCUAUCG [FmnBX 1 U11+G75] | K4 kissing-loop RNA reporter | criterion not met
GUAUGUGAUGGAAACAUCGCAUACACUGAUACCAGUAUCGAUAGAUACCCUUGGCAGCAGAAAACUGCAAUUGGAGUGAUGUUCC [Ex Theophylline A K4 1] | K4 kissing-loop RNA reporter | criterion not met
GAUAUAGUGAUGUUAUAUACUGAUAGACAACGAGGACCGGUACGGCCGCCACUCGAGAGGGUGAAAUUAAUGAUAAAAUAAUAAU [ExyTryA#2] | K4 kissing-loop RNA reporter | criterion met
UGUGUUGUUUUGAUGUUUGGUGUUGCUUGGCAGGAUAUCGUAGAGGCGAGAAGGGCUUGUGAGCGGUAUGAGUGAUGUUUGUAGG [zwwrmullin] | K4 kissing-loop RNA reporter | criterion not met
UUUGUAUCGGGAAGGAGCGUGAAUGAUAAUGGAUAUAGUGAUGUUAUAUAUAAGAACGAAUCGCAGGUAGGUCGCCCGGAUGACU [SSArgB.Q] | K4 kissing-loop RNA reporter | criterion met
CGUUUAUAGCAGGAUACCAGUACCCAUAAAGUACGUUAAUAGUAGAGUGAUGUUCUGAAGUACCCUUGGCAGCUUCCGGUAAGUG [#25 K4 Theophylline B Exclusion] | K4 kissing-loop RNA reporter | criterion met
CGUCACAAACCUAGUCAAGUGAUGUUUGGCCGAGGACCGGUACGGCCGCCACUCGCUCCUGUCACCCAUUCGUGUGUCGCGGACU [theeternabot_exclusion_KL_Trp_A_5] | K4 kissing-loop RNA reporter | criterion not met
UAUUUAUUAACUGAUACCAGACUUAAUGAAUUGUAAAUUACUAGUGAUGUUAGUGAAUCUGUCCCUUGGCAGCAGUAUUUAUUAA [JR_Nu_ExcTheophyB_Sub028] | K4 kissing-loop RNA reporter | criterion not met
ACGUCCGGAUUGAUCGUGGGCAUGGUCGAUACCAGUAGUUUAAUCUACCCUUGGCAGCGACAUGAGUGAUGUUCAUGUGCGAUGA [KL-XTheo-A7 #analogue] | K4 kissing-loop RNA reporter | criterion not met

We now examine a further sequence.
Enquiry: Dear colleague, could you confirm whether GUCAUCAGAUCGCAAGAUCUGAUAGCCGAUACCAGCGCGAAGGUGCGCCCUUGGCAGCGGCACCGAGUGAUGUUCGGUCAGACGA [#2 Same State - Theophylline A Attempt #5 (HarryS)] has apparent KD of K4 kissing-loop reporter at or above 300 nM?
Return: criterion met
